# Tested on: MV4; 11 Luc-Neo
# procedure.details: Pyroptosis in MV4;11 Luc-Neo cells
# Assay type: cell-based
# measurement.context: Homo sapiens
endpoint.name: IC50 (nM)
The answer is to be given in nM; state only the numeric part.

Tested on MV4; 11 Luc-Neo: CC(C)[C@H](N)C(=O)N1CCC[C@H]1B(O)O . Observed IC50: 60

====

# target: recombinant human dipeptidyl peptidase II (DPPII) (Homo sapiens (Human), UniProt Q9UHL4)
# procedure.details: In vitro inhibition assay, dipeptidyl peptidase II
# Assay type: biochemical
# measurement.context: compound incubated at room temperature overnight at pH 2.0 or pH 7.4 prior to the assays; read-out: DPPII IC50
endpoint.name: IC50 (nM)
The answer is to be given in nM; state only the numeric part.

Tested on recombinant human dipeptidyl peptidase II (DPPII) (Homo sapiens (Human), UniProt Q9UHL4): N[C@H](C(=O)N1CCC[C@H]1B(O)O)C12CC3CC(CC(C3)C1)C2 (relative stereo) . Observed IC50: 21

====

Please consider the recorded pIC50 for DPP4 (Homo sapiens (Human)) in what follows.
# log scale: pIC50 equals minus log10 of the concentration in mol/L

CC1([C@H](N)C(=O)N2CCC[C@H]2B(O)O)CCCCC1 (relative stereo) [ARI-4175CH] = 11.30

Tested on DPP4 (Homo sapiens (Human)): N[C@H](C(=O)N1CCC[C@H]1B(O)O)C12CC3CC(CC(Cl)(C3)C1)C2 (relative stereo) [ARI-3102C] . Observed pIC50: 11.22

====

# Test system: G-CSF
# measurement.context: 20 μg/animal SC
endpoint.name: Average [G-CSF] at 6 hrs
Dear colleague, please send the value followed by its unit.

CC1([C@H](N)C(=O)N2CCC[C@H]2B(O)O)CCCCC1 (relative stereo) [ARI-4175CH] = 60000 pg/mL
CC(C)[C@H](N)C(=O)N1CCC[C@H]1B(O)O [Val-boroPro, Valine-boroProline] = 97000 pg/mL
N[C@H](C(=O)N1CCC[C@H]1B(O)O)C12CC3CC(CC(C3)C1)C2 (relative stereo) [ARI-5544, Gly(1-adamantyl)-boroPro] = 73000 pg/mL
NC(N)=NCCC[C@H](N)C(=O)N1CCC[C@H]1B(O)O [Arg-boroPro] = 160 pg/mL

Attention now turns to another entry.
Lab note: CC(C)(C)[C@H](N)C(=O)N1CCC[C@H]1B(O)O [ARI-4175] gave Average [G-CSF] at 6 hrs of 65000 pg/mL

====

# Test system: macrophages
# procedure.details: Pyroptosis of macrophages in cell culture
# Format: cell-based
# measurement.context: Macrophage; Example 2 table; unit inferred
endpoint.name: IC50 (nM)
The answer is to be given in nM; state only the numeric part.

Sample answers from the record:
N[C@H](C(=O)N1CCC[C@H]1B(O)O)C1CCCCC1 [compound 1797, Crg-boroPro] = 23
CC[C@@H](C)[C@H](N)C(=O)N1CCC[C@H]1B(O)O [compound 4317] = 13
C[C@H](N)C(=S)N1CCC[C@H]1B(O)O [ARI-2243] = 11000
CC[C@H](C)[C@H](N)C(=O)N1CCC[C@H]1B(O)O [compound 4316, theoric-boroPro] = 21

Attention now turns to another entry.
Lab note: CC(C)[C@H](N)C(=O)N1CCC[C@H]1B(O)O [Val-boroPro, Valine-boroProline] gave IC50 of 49
